System: pseudotyped VSV G particles (VSVpp)
METHOD_NOTES: microbe, parasite or virus in culture
Type: cell-based
CONDITIONS_USED: Vesicular stomatitis virus, 72 h, read-out: VSVpp (EC50, μM)
Define the label as 1 when EC50 is strictly less than 30 µM and as 0 in all remaining cases.

Below are worked cases with known answers.
>>> answer_label("Nc1nc(Nc2cc(Cl)c([S+]([O-])c3ccccc3)c(Cl)c2)n[nH]1 (stereo not drawn) [Compound 5]")
1
>>> answer_label("N#Cc1ccc(Sc2c(Cl)cc(Nc3n[nH]c(N)n3)cc2Cl)cc1 [Compound 12]")
1
>>> answer_label("Nc1nc(Nc2cc(Cl)c(Sc3ccccc3C(F)(F)F)c(Cl)c2)n[nH]1 [Compound 10]")
1
>>> answer_label("Nc1nc(Nc2cc(Cl)c([S+]([O-])c3ccc(C(F)(F)F)cc3)c(Cl)c2)n[nH]1 (stereo not drawn) [Compound 8]")
1
>>> answer_label("Nc1nc(Nc2ccc(Sc3ccccc3)c(Cl)c2)n[nH]1 [Compound 22]")
1
>>> answer_label("Nc1nc(Nc2cc(Cl)c([S+]([O-])c3cccc(C(F)(F)F)c3)c(Cl)c2)n[nH]1 (stereo not drawn) [Compound 11]")
1
>>> answer_label("Nc1nc(Nc2cc(Cl)c(S(=O)(=O)c3ccccc3)c(Cl)c2)n[nH]1 [Compound 6]")
0
>>> answer_label("CN(c1ccc(Sc2ccccc2)c(Cl)c1)c1n[nH]c(N)n1 [Compound 24]")
0
>>> answer_label("Nc1nc(Nc2ccc(Oc3ccccc3)c(Cl)c2)n[nH]1 [Compound 3]")
0
>>> answer_label("Nc1nc(Nc2cc(Cl)c(Sc3ccc(C(F)(F)F)cc3)c(Cl)c2)n[nH]1 [Compound 7]")
0

query: Please indicate whether the reported EC50 of COc1ccc(Sc2c(Cl)cc(Nc3n[nH]c(N)n3)cc2Cl)cc1 [Compound 16] is strictly below 30 µM.
result: 0

query: Given the entry COC(=O)c1ccc(Sc2c(Cl)cc(Nc3n[nH]c(N)n3)cc2C(F)(F)F)cc1 [Compound 15] , would its reported EC50 be below 30 µM?
result: 0

Origin of values: patent US9511059B2
